Reference source for all entries: patent EP1077967B1

Reported pIC50 values for the following compounds.
- measuredTarget: Human recombinant PTP1B (Homo sapiens, UniProt P18031)
- Construct: made in house
- Sequence (P18031 1-435): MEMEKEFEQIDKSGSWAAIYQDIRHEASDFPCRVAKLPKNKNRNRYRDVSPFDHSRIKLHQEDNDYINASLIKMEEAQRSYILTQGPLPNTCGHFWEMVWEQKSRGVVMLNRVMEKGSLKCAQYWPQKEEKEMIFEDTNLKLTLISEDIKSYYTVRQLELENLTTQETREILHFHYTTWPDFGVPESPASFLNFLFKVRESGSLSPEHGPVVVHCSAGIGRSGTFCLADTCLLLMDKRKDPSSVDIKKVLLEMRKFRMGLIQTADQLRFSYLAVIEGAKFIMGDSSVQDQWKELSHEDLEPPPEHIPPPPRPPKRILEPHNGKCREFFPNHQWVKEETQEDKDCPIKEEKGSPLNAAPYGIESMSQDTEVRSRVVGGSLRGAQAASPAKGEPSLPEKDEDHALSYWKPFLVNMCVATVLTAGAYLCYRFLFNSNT
- assayMethodText: Inhibition of tri-phosphorylated insulin receptor dodecaphosphopeptide dephosphorylation by hPTP1B (malachite green)
- Type: biochemical
- conditionSummary: recombinant PTP1B, dodecaphosphopeptide substrate
Friendly reminder that pIC50 comes from taking -log10 of the concentration in mol/L.

For orientation, consider the following solved cases.
1) COc1ccc(-c2cc(-c3ccc(-c4c(Cc5ccccc5)sc5ccccc45)cc3)cc(Br)c2OCC(=O)O)cc1: 7.54
2) COc1cccc(-c2cc(-c3ccc(-c4c(Cc5ccccc5)sc5ccccc45)cc3)cc(-c3cccc(OC)c3)c2OCC(=O)O)c1: 7.60
3) O=C(O)C(Cc1ccccc1)Oc1ccc(-c2ccc(-c3c(C(O)c4ccccc4)oc4ccccc34)cc2)cc1[N+](=O)[O-] (stereo not shown): 6.99
4) CC1(C)Oc2ccc(Cc3sc4ccccc4c3-c3ccc(-c4ccc(O[C@H](Cc5ccccc5)C(=O)O)cc4)cc3)cc2O1: 7.11
5) O=C(O)[C@@H](CCN1C(=O)c2ccccc2C1=O)Oc1c(Br)cc(-c2ccc(-c3c(Cc4ccccc4)sc4ccccc34)cc2)cc1Br: 7.36
6) Oc1ccc(-c2ccc(-c3c(Cc4ccccc4)sc4ccccc34)cc2)cc1Br: 5.97

Attention now shifts to the item below.
Look up pIC50 with Human recombinant PTP1B (Homo sapiens, UniProt P18031) for this compound: Cc1sc(Cc2ccccc2)c(-c2ccc(-c3ccc(O[C@H](Cc4ccccc4)C(=O)O)cc3)cc2)c1C
6.29
